The entries below come with measured logP values attached.
Where a SMILES comes first, the peptide text is derived from it. The star is where a group is joined. X1 = O=C(CCCCSc1[nH]cnc2ncnc1-2)*
Observation type: logP

1. CCCCCCOc1ccccc1NC(=O)OCCN1CCOCC1 ... 4.24
2. CN(C)C(=O)COC(=O)c1cc(S(N)(=O)=O)c(Cl)cc1NCc1ccco1 ... 1.18
3. CCOC(=O)CNC(=O)CNC(=O)CNC(=O)CNC(=O)CCCCSc1[nH]cnc2ncnc1-2 (X1-GGGG-OEt) ... -0.23
4. CCOC(=O)c1cc(S(N)(=O)=O)c(Cl)cc1NCc1ccco1 ... 2.67
5. COc1ccc(NC(=O)OCCN2CCOCC2)cc1 ... 1.7
6. OCC1CCC(n2cnc3cncnc32)O1 (stereo unspecified) ... -0.47

====

Where a SMILES comes first, the peptide text is derived from it. [ ]: non-standard residue; d: D form. Orn = NCCC[CH](N)C(=O)O
# logP binned as Low (below 2), Mid (2 to below 3), High (3 or more)

1. CC12CCC(=O)C=C1CC(C#N)C1C2CCC2(C)C1CCC21CCC(=O)O1 (centres undefined) ... Low
2. CCN1C(=O)C(=O)c2cc3ccccc3cc2C1=O ... Mid
3. CC(=O)NC(CCCN)C(=O)NC(CC(C)C)C(N)=O (centres undefined) (Ac-[Orn]-Leu-NH2; configuration not given here) ... Low
4. CCN(CC)C(=O)COC(=O)C(C)c1ccc2cc(OC)ccc2c1 (centres undefined) ... High
5. CN1C(C(=O)Nc2nccs2)=C(O)c2ccccc2S1(=O)=O ... Low
6. COCCNC(=O)C(F)(F)Cn1cnc([N+](=O)[O-])n1 ... Low
7. CO[C@@]1(NC(=O)C(C(=O)O)c2ccc(O)cc2)C(=O)N2C(C(=O)O)=C(CSc3nnnn3C)CO[C@@H]21 (some centres undefined) ... Low
8. Oc1c(I)cc(I)cc1I ... High
9. CC(C)(N=C(O)C(Br)C(C)(C)C)c1ccccc1 (centres undefined) ... High
10. NC1=NCC2c3ccccc3Cc3ccccc3N12 (centres undefined) ... High
11. C=C(C)c1c(OC)cc(Cc2cnc(N)nc2N)cc1OCC ... Mid
12. Cc1ccc(C(=O)OCCN(C)C)cc1 ... Mid
13. COc1nc(C(Cl)(Cl)Cl)nc(C(Cl)(Cl)Cl)n1 ... High
14. Cc1cccc(OCCO)c1 ... Low
15. c1ccc2c3c([nH]c2c1)CN1CCNCC1C3 (centres undefined) ... Low
16. [N-]=[N+]=CC(=O)NCC(=O)N1CCOCC1 ... Low
17. Cc1cc(=O)oc2cc(OC3OC(CO)C(O)C(O)C3O)ccc12 (centres undefined) ... Low
18. c1ccc(OCc2cccc(CN3CCCOC3)c2)cc1 ... Mid
19. O=S1(=O)NC(C2CC=CC2)=Nc2ccccc21 ... Low
20. CCCCOc1ccc(OCC(OC(=O)n2ccnc2)C(C)(C)C)cc1 (centres undefined) ... High
21. CCOC(=O)Cc1ccc(O)c2ncccc12 ... Mid
22. O=C(NCCCO)C(F)(F)Cn1ccnc1[N+](=O)[O-] ... Low
23. COCC(Cn1ccnc1[N+](=O)[O-])OC(C)=O (centres undefined) ... Low
24. CCCC(CCC)(NC(C)=O)C(N)=O ... Low
25. Clc1cc(-c2cc(Cl)c(Cl)c(Cl)c2Cl)c(Cl)c(Cl)c1Cl ... High
26. CCCn1c(=O)c2[nH]c(-c3ccc(Cl)cc3N)nc2n(CCC)c1=O ... High
27. CC(=O)C12OC(C)(c3ccc(F)cc3)OC1CC1C3CCC4=CC(=O)CCC4(C)C3CCC12C (centres undefined) ... High
